# Test summary: Rifalazil solubility in surfactants and surfactant mixtures
# Type: physicochemical
# Experimental setup: oil or lipid, thermodynamic from solid; in Oleic Acid; 24 hrs equilibration
Quantity measured: solubility at 24 h (mg/mL)
Give just the numeric value; mg/mL need not be written.

Task: What value of solubility at 24 h has been recorded for this entry: CO[C@H]1/C=C/O[C@@]2(C)Oc3c(C)c(O)c4c(=O)c(c5oc6cc(N7CCN(CC(C)C)CC7)cc(O)c6nc-5c4c3C2=O)NC(=O)/C(C)=C\C=C\[C@H](C)[C@H](O)[C@@H](C)[C@@H](O)[C@@H](C)[C@H](OC(C)=O)[C@@H]1C
Output: 59

====

# Test summary: Rifalazil solubility in surfactants and surfactant mixtures
# Type: physicochemical
# Experimental setup: Formulation M10 (excipient blend), aqueous with cosolvent or surfactant or cyclodextrin, thermodynamic from solid; in Formulation M10; 24 hrs equilibration
Quantity measured: solubility at 24 h (mg/mL)
Give just the numeric value; mg/mL need not be written.

Task: What value of solubility at 24 h has been recorded for this entry: CO[C@H]1/C=C/O[C@@]2(C)Oc3c(C)c(O)c4c(=O)c(c5oc6cc(N7CCN(CC(C)C)CC7)cc(O)c6nc-5c4c3C2=O)NC(=O)/C(C)=C\C=C\[C@H](C)[C@H](O)[C@@H](C)[C@@H](O)[C@@H](C)[C@H](OC(C)=O)[C@@H]1C
Output: 36.9

====

# Test summary: Rifalazil solubility in surfactants and surfactant mixtures
# Assay type: physicochemical
# Experimental setup: organic solvent or mixture, thermodynamic from solid; in PEG 1500; equilibration at 60° C. to melt PEG 1500
Quantity measured: solubility at 24 h (mg/mL)
Give just the numeric value; mg/mL need not be written.

Task: What value of solubility at 24 h has been recorded for this entry: CO[C@H]1/C=C/O[C@@]2(C)Oc3c(C)c(O)c4c(=O)c(c5oc6cc(N7CCN(CC(C)C)CC7)cc(O)c6nc-5c4c3C2=O)NC(=O)/C(C)=C\C=C\[C@H](C)[C@H](O)[C@@H](C)[C@@H](O)[C@@H](C)[C@H](OC(C)=O)[C@@H]1C
Output: 62

====

# Test summary: Rifalazil solubility in surfactants and surfactant mixtures
# Type: physicochemical
# Experimental setup: Formulation M5 (excipient blend), aqueous with cosolvent or surfactant or cyclodextrin, thermodynamic from solid; in Formulation M5; 24 hrs equilibration
Quantity measured: solubility at 24 h (mg/mL)
Give just the numeric value; mg/mL need not be written.

Task: What value of solubility at 24 h has been recorded for this entry: CO[C@H]1/C=C/O[C@@]2(C)Oc3c(C)c(O)c4c(=O)c(c5oc6cc(N7CCN(CC(C)C)CC7)cc(O)c6nc-5c4c3C2=O)NC(=O)/C(C)=C\C=C\[C@H](C)[C@H](O)[C@@H](C)[C@@H](O)[C@@H](C)[C@H](OC(C)=O)[C@@H]1C [Rifalazil]
Output: 28.4

====

# Test summary: Rifalazil solubility in surfactants and surfactant mixtures
# Assay type: physicochemical
# Experimental setup: aqueous with cosolvent or surfactant or cyclodextrin, thermodynamic from solid; in Labrafil M 19944 CS:Etocas 35 (5:1); 24 hrs equilibration
Quantity measured: solubility at 24 h (mg/mL)
Give just the numeric value; mg/mL need not be written.

Task: What value of solubility at 24 h has been recorded for this entry: CO[C@H]1/C=C/O[C@@]2(C)Oc3c(C)c(O)c4c(=O)c(c5oc6cc(N7CCN(CC(C)C)CC7)cc(O)c6nc-5c4c3C2=O)NC(=O)/C(C)=C\C=C\[C@H](C)[C@H](O)[C@@H](C)[C@@H](O)[C@@H](C)[C@H](OC(C)=O)[C@@H]1C
Output: 29
